- measurement-context: buffer; pH 7.4; 200.0 µM
Consider the following molecules; for each one, report its solubility kinetic.

Examples with their reported solubility kinetic follow.
# molecule, solubility kinetic
rows = [
    ("O=[N+]([O-])c1cccc(Nc2c([N+](=O)[O-])ccc3nonc23)c1", "< 0.1 µg/mL"),
    ("CN(C(=O)COC(=O)CNC(=O)c1sc2ccccc2c1Cl)C1CCS(=O)(=O)C1 (configuration not stated)", "> 68.8 µg/mL"),
    ("CC(=NCCCO)c1c(O)[nH]c(=O)[nH]c1=O", "> 34.1 µg/mL"),
    ("CC(C)CCc1c(O)nc(SCC(C)C)[nH]c1=O", "> 40.6 µg/mL"),
    ("CNC(=S)Nc1cccc(C(=O)O)c1", "> 31.5 µg/mL"),
    ("CC(=O)c1ccc(NC(=O)COC(=O)C2CC3C=CC2C3)cc1 (configuration not stated)", "> 47 µg/mL"),
    ("O=C(NCCCO)C(=O)c1c(-c2ccccc2)cc2ccccn12", "> 48.4 µg/mL"),
    ("Cc1ccc(N2CC(O)=C(c3ccccc3)C2=N)cc1", "> 39.6 µg/mL"),
    ("CN(Cc1ccccc1)C(=O)N1CCOCC1", "> 35.1 µg/mL"),
    ("Cc1onc(-c2ccccc2)c1C(=O)N(C)CCc1ccccn1", "> 48.2 µg/mL"),
]

Need solubility kinetic for each of these molecules.
1. Cc1ccc(C(=O)NCCCNC(=O)c2ccco2)cc1
2. COc1ccccc1C(=O)NCCC(=O)Nc1cccnc1

1. > 42.9 µg/mL
2. > 44.9 µg/mL

* * *

Consider the following compounds; for each one, report its solubility kinetic.
- measurement-context: buffer; pH 7.4; 200.0 µM

Need solubility kinetic for each of these compounds.
1. O=C(NC1CCCCC1)c1ccc2c(c1)OCO2
2. C=CCn1c(O)c(/C(C)=N/N2CCCCCC2)c(=O)[nH]c1=O

1. > 37.1 µg/mL
2. > 46 µg/mL

* * *

- measurement-context: buffer; pH 7.4; 200.0 µM
measurement-name: solubility kinetic (µg/mL)
Answers are plain numbers, in µg/mL.

# compound, measurement-name, units-label, value-observed
records = [
    ("COc1ccc2c(c1OC)C(=O)OC2Nc1nc2ccccc2s1 (stereo unspecified)", "solubility kinetic", "µg/mL", 50.4),
    ("C=C(C)c1cccc(C(C)(C)NC(=O)NCCN(CC)CC)c1", "solubility kinetic", "µg/mL", 44),
    ("CCC(=O)Nc1ccc(C(=O)CN2CCC(C)CC2)cc1", "solubility kinetic", "µg/mL", 39.4),
]

Switching to the query record.
# get_value(readout='solubility kinetic', item= O=C(CCc1ccccc1)N1CCCC1 )
29.9

* * *

- measurement-context: buffer; pH 7.4; 200.0 µM
measurement-name: solubility kinetic

Need solubility kinetic for each of these compounds.
1. FC(F)Oc1ccc(NC(=S)NCc2cccnc2)cc1
2. CN(Cc1ccccc1)C(=O)COC(=O)c1cc(=O)c2ccccc2o1
3. CCNCc1ccc(OCc2cccs2)c(OCC)c1
4. Cc1ccc2nc(SCC(=O)Nc3nonc3C)[nH]c2c1
5. CC1CCCCC1NC(=O)COc1cccnc1[N+](=O)[O-] (stereo not given)

1. > 46.4 µg/mL
2. > 52.7 µg/mL
3. > 43.7 µg/mL
4. > 45.5 µg/mL
5. > 44 µg/mL
